I'd appreciate it if you could supply GI50 values for the items below.
test system: T-Rex 293 cell line SC3 cells lacking increased expression of androgen receptor protein; assay: Cellular growth inhibition assay, T-Rex 293 SC3 cells without doxycycline (CellTiter-Glo, 72 hours); assay type: cell-based; conditions: 72 h, T-Rex 293 cell line SC3 cells not exposed to doxycycline (lacking increased androgen receptor expression)

Challenge: Form field: reported GI50 of Cc1sc2c(c1C)C(c1ccc(CN(C)C(=O)[C@@H]3CC[C@H](c4ccc(C(=O)N[C@H]5CC[C@H](Oc6ccc(C#N)c(Cl)c6)CC5)nn4)C3)cc1)=N[C@@H](Cc1ncco1)c1nnc(C)n1-2 [I-315]
Response given: > 3000 nM

Challenge: Would you kindly share the measured GI50 for Cc1sc2c(c1C)C(c1ccc([C@H]3C[C@@H](C[C@@H]4CCCN(c5ccc(C(=O)N[C@H]6CC[C@H](Oc7ccc(C#N)c(Cl)c7)CC6)nn5)C4)C3)cc1)=N[C@@H](Cc1ncco1)c1nnc(C)n1-2 [I-355] ?
Response given: > 3000 nM

Challenge: # lookup: GI50 of Cc1sc2c(c1C)C(c1ccc(N3CCC(C)(CNc4ncc(C(=O)N[C@H]5CC[C@H](Oc6ccc(C#N)c(Cl)c6)CC5)cn4)CC3)cc1)=NC(Cc1ncco1)c1nnc(C)n1-2 (stereo partly shown) [I-817]
Response given: < 500 nM

Challenge: Any idea what GI50 was measured for Cc1sc2c(c1C)C(c1ccc(N3CCO[C@@H](CNc4ncc(C(=O)N[C@H]5CC[C@H](Oc6ccc(C#N)c(Cl)c6)CC5)cn4)C3)cc1)=NC(Cc1ncco1)c1nnc(C)n1-2 (stereo partly shown) [I-819] ?
Response given: < 500 nM

Challenge: What GI50 value was documented for this compound, Cc1sc2c(c1C)C(c1ccc(C(=O)N3CCC(N(C)c4ccc(C(=O)N[C@H]5CC[C@H](Oc6ccc(C#N)c(Cl)c6)CC5)nn4)CC3)cc1)=N[C@@H](Cc1ncco1)c1nnc(C)n1-2 [I-306] ?
Response given: > 3000 nM

Challenge: What measured GI50 goes with Cc1sc2c(c1C)C(c1ccc(N3C[C@@]4(C)CN(c5ccc(C(=O)N[C@H]6CC[C@H](Oc7ccc(C#N)c(Cl)c7)CC6)nn5)C[C@@]4(C)C3)cc1)=N[C@@H](Cc1ncco1)c1nnc(C)n1-2 [I-826] ?
Response given: < 500 nM

Challenge: May I ask what GI50 has been recorded for Cc1sc2c(c1C)C(c1ccc([C@@H]3CCN(C(=O)[C@@H]4CCCN(c5ccc(C(=O)N[C@H]6CC[C@H](Oc7ccc(C#N)c(Cl)c7)CC6)nn5)C4)C3)cc1)=N[C@@H](Cc1ncco1)c1nnc(C)n1-2 [I-341] ?
Response given: > 3000 nM

Challenge: // lookup GI50 for Cc1sc2c(c1C)C(c1ccc(CC3CC4(CCN(c5ccc(C(=O)N[C@H]6CC[C@H](Oc7ccc(C#N)c(Cl)c7)CC6)nn5)CC4)C3)nc1)=N[C@@H](Cc1ncco1)c1nnc(C)n1-2 [I-347]
Response given: < 500 nM

Challenge: Give its GI50 value. Item: Cc1sc2c(c1C)C(c1ccc(O[C@H]3CC[C@]4(CCCN(c5ccc(C(=O)N[C@H]6CC[C@H](Oc7ccc(C#N)c(Cl)c7)CC6)nn5)C4)C3)cc1)=N[C@@H](Cc1ncco1)c1nnc(C)n1-2 [I-97]
Response given: < 500 nM

Challenge: // returns reported GI50 for input Cc1sc2c(c1C)C(c1ccc(O[C@H]3C[C@@]4(CCCN(c5ccc(C(=O)N[C@H]6CC[C@H](Oc7ccc(C#N)c(Cl)c7)CC6)nn5)C4)C3)cc1)=N[C@@H](Cc1ncco1)c1nnc(C)n1-2 [I-92]
Response given: < 500 nM

Challenge: Returns the measured GI50 for the input compound. Input: Cc1sc2c(c1C)C(c1ccc(CC3CN(C(C)(C)C4CCN(c5ccc(C(=O)N[C@H]6CC[C@H](Oc7ccc(C#N)c(Cl)c7)CC6)nn5)CC4)C3)cc1)=N[C@@H](C)c1nnc(C)n1-2 [I-640]
Response given: > 3000 nM

Challenge: # get_value(readout='GI50', item= Cc1sc2c(c1C)C(c1ccc([C@H]3C[C@@H](C4CCN(c5ccc(C(=O)N[C@H]6CC[C@H](Oc7ccc(C#N)c(Cl)c7)CC6)nn5)CC4)C3)cc1)=N[C@@H](Cc1ncco1)c1nnc(C)n1-2 [I-371] )
Response given: > 3000 nM

Challenge: Please look up its GI50: Cc1sc2c(c1C)C(c1ccc(N3C[C@H](F)C[C@@H](Nc4ncc(C(=O)N[C@H]5CC[C@H](Oc6ccc(C#N)c(Cl)c6)CC5)cn4)C3)cc1)=NC(Cc1ncco1)c1nnc(C)n1-2 (stereo partly shown) [I-813]
Response given: < 500 nM

Challenge: # query: GI50 of entry CCNC(=O)C[C@@H]1N=C(c2ccc(CC3CCN(c4ccc(C(=O)N[C@H]5CC[C@H](Oc6ccc(C#N)c(Cl)c6)CC5)nn4)CC3)cc2)c2c(sc(C)c2C)-n2c(C)nnc21 [I-20]
Response given: < 500 nM

Challenge: Quick one: GI50 for CC[C@@H]1N=C(c2ccc(C3CCC4(CCN(c5ccc(C(=O)N[C@H]6CC[C@H](Oc7ccc(C#N)c(Cl)c7)CC6)nn5)CC4)C3)cc2)c2c(sc(C)c2C)-n2c(C)nnc21 (stereo partly shown) [I-574] ?
Response given: > 3000 nM

Challenge: For CC[C@@H]1N=C(c2ccc(N3CCC(Cc4ccc(C(=O)N[C@H]5CC[C@H](Oc6ccc(C#N)c(Cl)c6)CC5)nn4)CC3)cc2)c2c(sc(C)c2C)-n2c(C)nnc21 [I-614] , what is its reported GI50?
Response given: 500 to 1500 nM

Challenge: Sample Cc1sc2c(c1C)C(c1ccc(N3CC4(CC(Cc5ccc(C(=O)N[C@H]6CC[C@H](Oc7ccc(C#N)c(Cl)c7)CC6)nn5)C4)C3)cc1)=N[C@@H](C)c1nnc(C)n1-2 [I-604] — what was its GI50?
Response given: < 500 nM

Challenge: Recorded GI50 of Cc1sc2c(c1C)C(c1ccc(OC[C@H]3C[C@@]4(CCCN(c5ccc(C(=O)N[C@H]6CC[C@H](Oc7ccc(C#N)c(Cl)c7)CC6)nn5)C4)C3)cc1)=N[C@@H](C)c1nnc(C)n1-2 [I-310] , please.
Response given: > 3000 nM

Challenge: Give the measured GI50 of Cc1sc2c(c1C)C(c1ccc(N3CCN(C(=O)c4ccc(C(=O)N[C@H]5CC[C@H](Oc6ccc(C#N)c(Cl)c6)CC5)nn4)CC3)cc1)=N[C@H](Cc1ncco1)c1nnc(C)n1-2 [I-251] .
Response given: 500 to 1500 nM

====

Would you kindly list GI50 for each of these compounds?
tested on: T-Rex 293 cell line SC3 cells lacking increased expression of androgen receptor protein; assay: Cellular growth inhibition assay, T-Rex 293 SC3 cells without doxycycline (CellTiter-Glo, 72 hours); type: cell-based; conditions: 72 h, T-Rex 293 cell line SC3 cells not exposed to doxycycline (lacking increased androgen receptor expression)

Challenge: Could you share which GI50 value was measured for Cc1sc2c(c1C)C(c1ccc(C3CCC4(CCN(c5ccc(C(=O)N[C@H]6CC[C@H](Oc7ccc(C#N)c(Cl)c7)CC6)nn5)CC4)C3)cc1)=NC1(CC1)c1nnc(C)n1-2 (stereo partly drawn) [I-519] ?
Response given: > 3000 nM

Challenge: Reported GI50, compound Cc1sc2c(c1C)C(c1ccc(N3CCC(C(=O)NCc4ccc(C(=O)N[C@H]5CC[C@H](Oc6ccc(C#N)c(Cl)c6)CC5)nn4)CC3)cc1)=N[C@@H](Cc1ncco1)c1nnc(C)n1-2 [I-292] : ____
Response given: 500 to 1500 nM

Challenge: What does the record list as GI50 for Cc1sc2c(c1C)C(c1ccc(OC3CCC4(CCCN(c5ccc(C(=O)N[C@H]6CC[C@H](Oc7ccc(C#N)c(Cl)c7)CC6)nn5)C4)C3)cc1)=N[C@@H](C)c1nnc(C)n1-2 (stereo partly drawn) [I-536] ?
Response given: > 3000 nM

Challenge: Endpoint output: GI50 of Cc1sc2c(c1C)C(c1ccc(C(C)(C)CN3CC4(CCCN(c5ccc(C(=O)N[C@H]6CC[C@H](Oc7ccc(C#N)c(Cl)c7)CC6)nn5)C4)C3)cc1)=N[C@@H](Cc1ncco1)c1nnc(C)n1-2 [I-440] . Value?
Response given: 500 to 1500 nM

Challenge: Given the entry Cc1sc2c(c1C)C(c1ccc(C3CN(C4CCN(c5ccc(C(=O)N[C@H]6CC[C@H](Oc7ccc(C#N)c(Cl)c7)CC6)nn5)CC4)C3)cc1)=N[C@@H](Cc1ncco1)c1nnc(C)n1-2 [I-212] , report its measured GI50.
Response given: < 500 nM

Challenge: Could you share which GI50 value was measured for Cc1sc2c(c1C)C(c1ccc(CCN3CCOC4(CCN(c5ccc(C(=O)N[C@H]6CC[C@H](Oc7ccc(C#N)c(Cl)c7)CC6)nn5)CC4)C3)cc1)=N[C@@H](Cc1ncco1)c1nnc(C)n1-2 [I-222] ?
Response given: 500 to 1500 nM

Challenge: Recorded GI50 for Cc1sc2c(c1C)C(c1ccc(N3CC(CC4CCCN(c5ccc(C(=O)N[C@H]6CC[C@H](Oc7ccc(C#N)c(Cl)c7)CC6)nn5)C4)C3)cc1)=N[C@@H](C)c1nnc(C)n1-2 (stereo partly drawn) [I-576] , please?
Response given: < 500 nM

Challenge: Record request: GI50 value, item Cc1sc2c(c1C)C(c1ccc(CC3CCC4(CCCN(c5ccc(C(=O)N[C@H]6CC[C@H](Oc7ccc(C#N)c(Cl)c7)CC6)nn5)C4)C3)cn1)=N[C@@H](C)c1nnc(C)n1-2 (stereo partly drawn) [I-622]
Response given: < 500 nM

Challenge: Name the recorded GI50 for Cc1sc2c(c1C)C(c1ccc(OC[C@H]3CC[C@@]4(CCCN(c5ccc(C(=O)N[C@H]6CC[C@H](Oc7ccc(C#N)c(Cl)c7)CC6)nn5)C4)C3)cn1)=N[C@@H](Cc1ncco1)c1nnc(C)n1-2 [I-406] .
Response given: < 500 nM

Data origin: patent US20260109707A1
